Molecular target: T1, GR (Homo sapiens, UniProt P04150)
T1 construct: host or cells: HEK293 (HEK293/GRLuc; HEK293/GRLuc/MSR1 additionally transduced with human MSR1)
T1 sequence (P04150 524-758 limits assumed): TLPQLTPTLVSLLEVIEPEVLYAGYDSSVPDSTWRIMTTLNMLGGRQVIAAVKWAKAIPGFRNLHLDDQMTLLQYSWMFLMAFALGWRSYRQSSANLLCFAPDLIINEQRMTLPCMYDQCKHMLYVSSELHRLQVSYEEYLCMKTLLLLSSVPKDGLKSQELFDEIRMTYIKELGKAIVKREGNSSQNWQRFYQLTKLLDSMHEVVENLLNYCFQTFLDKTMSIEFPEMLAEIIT
Test: GR luciferase reporter assay in HEK293/GRLuc cells
Type: cell-based
Details: Table 11, ADCs
readout_kind: S/N
The reply should be a number, written without any unit.

input: Data request, read-out S/N, for H1H21234N-N297Q-L13-PII-1 (antibody, V domains shown, heavy-chain constant region (not part of this entry): N297Q (EU); linker-payload L13-PII-1 (COT-GGGG-NHCH2-Bud) conjugated as in Example 5; four DAR ADC) VH: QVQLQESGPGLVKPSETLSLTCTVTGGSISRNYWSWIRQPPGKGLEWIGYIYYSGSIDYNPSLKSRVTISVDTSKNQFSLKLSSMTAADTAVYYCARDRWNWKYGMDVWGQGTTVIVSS VL: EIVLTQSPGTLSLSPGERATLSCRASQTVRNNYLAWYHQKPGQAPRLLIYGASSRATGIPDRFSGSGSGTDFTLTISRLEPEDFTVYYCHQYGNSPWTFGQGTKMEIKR
output: 3.1

Measured values drawn from patent US20230119539A1 for this set.
